- System: SF-295
- assay summary: NCI tumour cell line growth inhibition, 48 h
Active and inactive are the calls of the source. No stated cut-off is given here; in the data, active = GI50 up to about 1.1 µM and inactive = higher.
Please reply with one of these outcomes: 1 (active), 0 (inactive)

### Prompt Field: outcome | Entry: CC(=O)O[C@@]12CO[C@@H]1C[C@@H](O)[C@@]1(C)C(=O)[C@H](O)C3=C(C)[C@@H](OC(=O)[C@H](O)[C@@H](NC(=O)c4ccccc4)c4ccccc4)C[C@@](O)([C@@H](OC(=O)c4ccccc4)C12)C3(C)C (some centres not stated)
### Response 1

### Prompt Call for entry Cc1cc(=O)oc2c(CNC(C(=O)O)C(C)O)c(O)ccc12 (configuration not stated) :
### Response 0

### Prompt Assay result, entry Nc1ncnc2c1ncn2[C@@H]1C[C@H](NO)[C@@H](O)[C@H]1O — outcome?
### Response 0

### Prompt Called result for CCOC(=O)Nc1ccc(S(=O)(=O)NCCCl)cc1.CCOC(=O)Nc1ccc(S(=O)(=O)NCCCl)cc1.O=C(O)c1ccc(/N=N/Cl)cc1O
### Response 0

### Prompt Dear colleague, could you share the recorded outcome for OCC1OC(n2ccc3cnccc32)CC1O (configuration not stated) when you have a moment?
### Response 0

### Prompt What call does the record list for C#C[C@]1(O)CC[C@H]2[C@@H]3CCC4=C/C(=N/CCOC(=O)c5cccc6cc7ccccc7nc56)CC[C@@H]4[C@H]3CC[C@@]21C ?
### Response 0

### Prompt Please let me know the test result on file for O=C(NC(COC(=O)C(Cc1ccccc1)NC(=O)c1ccccc1)Cc1ccccc1)c1ccccc1 (configuration not stated) .
### Response 0
